target: aldose reductase from calves lenses (Bos taurus)
observedProperty: IC50

Asked: Recorded IC50 for O=C1NC(=O)C2(CCOc3ccc(F)cc32)S1 (racemic) , please?
Given back: 0.1 µM
